Biological target: Mitogen-activated protein kinase 11 (Homo sapiens)
Sequence (Q15759 whole entry): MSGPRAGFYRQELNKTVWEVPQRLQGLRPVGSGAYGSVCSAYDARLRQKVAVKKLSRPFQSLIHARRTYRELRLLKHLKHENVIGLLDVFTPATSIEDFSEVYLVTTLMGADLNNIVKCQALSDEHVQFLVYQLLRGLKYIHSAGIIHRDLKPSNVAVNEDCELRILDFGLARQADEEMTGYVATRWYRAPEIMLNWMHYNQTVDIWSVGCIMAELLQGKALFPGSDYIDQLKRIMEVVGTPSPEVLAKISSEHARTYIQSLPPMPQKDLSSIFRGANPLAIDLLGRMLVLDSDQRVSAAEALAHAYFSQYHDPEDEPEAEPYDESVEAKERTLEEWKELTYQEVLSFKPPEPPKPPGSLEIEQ
Returns one of label 1 or label 0; label 1 when ΔTm is >= 0.2 °C.

Some entries whose results are on file:
O=C1NC(=O)C(c2cn(CCCn3ccnc3)c3ccccc23)=C1Nc1ccccc1	label 0
CC[C@H](CO)Nc1nc(NCc2ccccc2)c2ncn(C(C)C)c2n1 [SELICICLIB]	label 1
COc1cc(/C=C/C(=O)CC(=O)/C=C/c2ccc(O)c(OC)c2)ccc1O [CURCUMIN]	label 1

Could you please find out whether O=C1Nc2ccccc2/C1=C/c1cnc[nH]1 has ΔTm that meets 0.2 °C or exceeds it?
label 1

Could you tell me if the measured ΔTm of C[C@@H]1C[C@H]2O[C@@H]2/C=C\C=C\C(=O)Cc2c(Cl)c(O)cc(O)c2C(=O)O1 [RADICICOL] reaches 0.2 °C or more?
label 1

Decide: is the reported value of ΔTm for O=C1Nc2ccc(I)cc2/C1=C\c1cc(Br)c(O)c(Br)c1 equal to or greater than 0.2 °C?
label 0

Is ΔTm for NC1=NC(=O)/C(=C2\CCNC(=O)c3[nH]c(Br)cc32)N1 [HYMENIALDISINE] at or above 0.2 °C?
label 0

Record CN(C)CCCn1cc(C2=C(c3c[nH]c4ccccc34)C(=O)NC2=O)c2ccccc21 [GF-109203] ; criterion: ΔTm no lower than 0.2 °C. Met?
label 1

Entry c1ccc(-c2n[nH]c3c2oc2ccccc23)cc1 : is its ΔTm no less than 0.2 °C?
label 1

Is it the case that CSc1nc(-c2ccc(F)cc2)c(-c2ccnc(NC(C)c3ccccc3)c2)[nH]1 (racemic) has ΔTm reaching or exceeding 0.2 °C?
label 1

Hi team, for Cc1cc(Nc2nc(-c3ccccc3)nc3ccccc23)n[nH]1 , is the recorded ΔTm at or above 0.2 °C?
label 0

Check this molecule for ΔTm at or above 0.2 °C: CN[C@@H]1CC2O[C@@](C)([C@@H]1OC)n1c3ccccc3c3c4c(c5c6ccccc6n2c5c31)C(=O)NC4
label 1

Quick check, ΔTm >= 0.2 °C? Cc1cc2ncc(-c3ccccc3)nc2cc1C
label 0

Determine whether measured ΔTm meets or exceeds 0.2 °C for O=C1c2ccccc2-c2n[nH]c3cccc1c23
label 1

Does ΔTm meet or surpass 0.2 °C for O=C1C(Cl)=C(N2C(=O)CCC2=O)C(=O)c2ccccc21 ?
label 1

Has CC(C)N(CCO)c1nc(Nc2cccc(Cl)c2)c2ncn(C(C)C)c2n1 a recorded ΔTm greater than or equal to 0.2 °C?
label 0

Please tell me: is the molecule Cl.Cn1cc(C2=C(c3ccc4cc5n(c4c3)CCC(CN)C5)C(=O)NC2=O)c2ccccc21 (stereo unspecified) at or over 0.2 °C in terms of ΔTm?
label 0

Decide: ΔTm of O=C(O)Cc1ccc(O)c([N+](=O)[O-])c1 >= 0.2 °C?
label 1

In plain terms: is recorded ΔTm at least 0.2 °C for COc1ccc(Cl)cc1NC(=O)Nc1cc(C)nc2ccccc12 ?
label 1

Could you please find out whether O=S(=O)(NCCNC/C=C/c1ccc(Br)cc1)c1cccc2cnccc12 has ΔTm that meets 0.2 °C or exceeds it?
label 1

----------
Target: Ribosomal protein S6 kinase alpha-3 (Homo sapiens) (UniProt P51812)
Sequence (P51812 whole entry): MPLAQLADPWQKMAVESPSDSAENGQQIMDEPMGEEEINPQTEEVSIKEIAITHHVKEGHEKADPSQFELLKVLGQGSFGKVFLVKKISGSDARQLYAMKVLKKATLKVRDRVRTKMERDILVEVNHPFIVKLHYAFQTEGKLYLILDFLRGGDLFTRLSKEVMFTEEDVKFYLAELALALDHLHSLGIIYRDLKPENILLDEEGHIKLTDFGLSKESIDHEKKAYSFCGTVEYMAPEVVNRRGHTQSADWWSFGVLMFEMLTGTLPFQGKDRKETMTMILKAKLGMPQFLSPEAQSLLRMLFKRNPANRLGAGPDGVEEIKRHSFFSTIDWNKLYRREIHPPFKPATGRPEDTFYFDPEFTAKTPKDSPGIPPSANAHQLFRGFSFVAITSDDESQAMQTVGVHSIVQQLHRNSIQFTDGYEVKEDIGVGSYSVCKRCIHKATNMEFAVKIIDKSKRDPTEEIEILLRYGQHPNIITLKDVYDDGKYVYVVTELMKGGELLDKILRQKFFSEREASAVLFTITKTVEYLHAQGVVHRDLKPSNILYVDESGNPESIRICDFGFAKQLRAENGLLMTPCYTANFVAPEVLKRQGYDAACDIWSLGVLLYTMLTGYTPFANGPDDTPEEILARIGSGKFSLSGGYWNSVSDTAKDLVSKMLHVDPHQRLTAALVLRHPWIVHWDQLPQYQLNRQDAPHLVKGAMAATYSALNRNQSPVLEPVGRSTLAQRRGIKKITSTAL
outcome-measure: ΔTm (°C)
Numbers only, in °C.

COc1nccc(-c2c(-c3ccc(F)cc3)ncn2[C@H]2CC[C@H](O)CC2)n1	0.6
COc1ccc2c(c[n+](C)c3c4cc5c(cc4ccc23)OCO5)c1OC [CHELERYTHRINE CHLORIDE]	-1.3
CC(C)[C@H](CO)Nc1nc(Nc2cc(N)cc(Cl)c2)c2ncn(C(C)C)c2n1 [AMINOPURVALANOL]	-0.1
CC(C)N(CCO)c1nc(Nc2cccc(Cl)c2)c2ncn(C(C)C)c2n1	6

Dear colleague, could you please provide ΔTm for the compounds listed below?
1. O=C(O)/C=C/c1cc(CO)ccc1CO
2. O=C1Nc2ccc(S(=O)(=O)O)cc2/C1=C1/Nc2ccccc2/C1=N\O
3. CC(C)(C)n1nc(-c2ccc(Cl)cc2)c2c(N)ncnc21
4. Cc1nc(Nc2ncc(C(=O)Nc3c(C)cccc3Cl)s2)cc(N2CCN(CCO)CC2)n1
5. Oc1cccc(-c2nc(N3CCOCC3)c3oc4ncccc4c3n2)c1

1. 0.3
2. 5.6
3. 2.1
4. 0.9
5. 0.1

I have this compound here, CN(C)S(=O)(=O)c1ccc2c(c1)/C(=C/c1cc3c([nH]1)CCCC3)C(=O)N2 , and I need its recorded ΔTm.
7.5
